# Tgt: pooled human IgG (human IgG1, 2, 3 and 4)
Measured Enzyme Activity Endpoint Assay: IgG values are reported for all entries that follow.
Field: numeric (ng/µL). Do not append units.

- Protein: "PRT-434 (protein) MSQTEDSESLQRLRDIEDFQAEKKKQNVVYTKWLDGVDVKDHDFRKIVDGNIAYYATPLLNGRGFYDINKDFNRDSDKCAAAVAANMFHYWLDRNRDNVDRFLRQNPEKHGIIELPDGQLKLSDFLNTYESDDGYRDKSKLFDFISNNFNGPVWTDKLLDNYINGYAYNYKYGRTIEDPTKNTSKINFFKEVFNEKILTNNHSIRNQNEFSVLLSEALYTGKAIGLSYGPAGLRHGLGHIISVWGADLDADGNVVAIYVTDSDDKKLTIGDERVGLKRYKISTDDEGRLRLTAYEETHNTGGQIRGLWTLDTGKQAWADYFDKTEQTGTDQAEQ"
  Observation Type: "Enzyme Activity Endpoint Assay: IgG"
  Reading: 0

Now turn to the next protein.
Value of measured Enzyme Activity Endpoint Assay: IgG for the entry PRT-588 (protein) MRNQTTTYSEVTPSHITSVWTKGVTPPEQFIQGEDVFHAPYIANQGWYDITKTFNGKDDLLCGAATAGNMLHWWFDQNKEQIENYLKKHPEKQKIMFNNEEMFDLREAINTKDSQTDSALFSYFKDKAFPNLSARRLGVMPDHVLDMFINGYYLNVGNTDKTDVNRGTKDLRGGIFDAVFTRGDQSKLLTARHDLKNKTLKEISDLIKQELTEGKALALSHTYANVRINHVINLWGADFDAEGNLEAIYVTDSDSNASIGMKKYYVGVNSAGKVAISAKKIEGDNIGAQVLGLFTLSTGQDIWQQTNLEHHHHHH : 0
